biological target: Pol II (Homo sapiens, UniProt P24928); construct: HeLaScribe® nuclear extract containing Pol II and all other transcription factors; purchased Promega; host or cells: HeLa nuclear extract (endogenous protein); experiment: In vitro transcription runoff assay using HeLaScribe nuclear extract; assay type: biochemical; conditions: 300 nM; mean ± standard deviation
Starred links: 1 amine or outer side, 2 acyl side, 3 side chain; linkers in the order of their positions; H or OH if unused. Positions of bridges follow the written chain, without caps; N, C: chain ends. Non-standard residues stand in square brackets, D forms with d. Residues, ends and D or L forms follow the SMILES beside them. Trp(2-yl) = O=C([C@H](Cc1c([*:3])[nH]c2ccccc12)N[*:1])[*:2]; Pro(trans-4-guanidino) = N=C(N)N[C@H]1CN[C@H](C(=O)O)C1; Ile(4R-OH,5-OH) = C[C@H]([C@H](N)C(=O)O)[C@@H](O)CO; X1 = N#C[C@@H]1C[C@@H](C(=O)[*:2])N([*:1])C1; Pro(4R-NH2) = N[C@H]1CN[C@H](C(=O)O)C1
Parameter Transcription activity E (%): see the listing below.
Please format your answer as a value with the unit trailing.

Here are 2 compounds together with their reported answers.
[
  {
    "Compound": "CC[C@H](C)[C@@H]1NC(=O)CNC(=O)[C@@H]2Cc3c([nH]c4ccccc34)SC[C@H](NC(=O)CNC1=O)C(=O)N[C@@H](CC(N)=O)C(=O)N1C[C@H](C#N)C[C@H]1C(=O)N[C@@H]([C@@H](C)[C@@H](O)CO)C(=O)N2 [Compound 4, CN-Pro-amanitin] (cyclo(CN[X1][Ile(4R-OH,5-OH)][Trp(2-yl)]GIG); thioether 1-5)",
    "Transcription activity E (%)": "72.4 ± 9.7%"
  },
  {
    "Compound": "CC[C@H](C)[C@@H]1NC(=O)CNC(=O)[C@@H]2Cc3c([nH]c4ccccc34)SC[C@H](NC(=O)CNC1=O)C(=O)N[C@@H](CC(N)=O)C(=O)N1C[C@H](N)C[C@H]1C(=O)N[C@@H]([C@@H](C)[C@@H](O)CO)C(=O)N2 [Compound 6, NH2-Pro-amanitin] (cyclo(CN[Pro(4R-NH2)][Ile(4R-OH,5-OH)][Trp(2-yl)]GIG); thioether 1-5)",
    "Transcription activity E (%)": "55.0 ± 23.6%"
  }
]

Switching to the query record.
Field request: Transcription activity E (%) | item: CC[C@H](C)[C@@H]1NC(=O)CNC(=O)[C@@H]2Cc3c([nH]c4ccccc34)SC[C@H](NC(=O)CNC1=O)C(=O)N[C@@H](CC(N)=O)C(=O)N1C[C@H](NC(=N)N)C[C@H]1C(=O)N[C@@H]([C@@H](C)[C@@H](O)CO)C(=O)N2 [Compound 7, Gdn-Pro-amanitin] (cyclo(CN[Pro(trans-4-guanidino)][Ile(4R-OH,5-OH)][Trp(2-yl)]GIG); thioether 1-5) 56.6 ± 11.6%

----------
assay: Cell viability assay (BrdU incorporation) on HEK293-OATP1B3 cells; assay type: cell-based, human; details: human, HEK293 cells overexpressing OATP1B3 (HEK293-OATP1B3); highest used concentration of 1 μM; HEK293-OATP1B3 cells
Starred links: 1 amine or outer side, 2 acyl side, 3 side chain; linkers in the order of their positions; H or OH if unused. Positions of bridges follow the written chain, without caps; N, C: chain ends. Non-standard residues stand in square brackets, D forms with d. Residues, ends and D or L forms follow the SMILES beside them. Trp(2-yl) = O=C([C@H](Cc1c([*:3])[nH]c2ccccc12)N[*:1])[*:2]; Pro(trans-4-guanidino) = N=C(N)N[C@H]1CN[C@H](C(=O)O)C1; X2 = [N-]=[N+]=N[C@@H]1C[C@@H](C(=O)[*:2])N([*:1])C1; Ile(4R-OH,5-OH) = C[C@H]([C@H](N)C(=O)O)[C@@H](O)CO; X1 = N#C[C@@H]1C[C@@H](C(=O)[*:2])N([*:1])C1; Pro(4R-NH2) = N[C@H]1CN[C@H](C(=O)O)C1
Hi! Just check whether viability at 96 h, 1 µM is below 50%. Below gives criterion met, equal or above gives criterion not met.

[
  {
    "Molecule": "CC[C@H](C)[C@@H]1NC(=O)CNC(=O)[C@@H]2Cc3c([nH]c4ccccc34)SC[C@H](NC(=O)CNC1=O)C(=O)N[C@@H](CC(N)=O)C(=O)N1C[C@H](N=[N+]=[N-])C[C@H]1C(=O)N[C@@H]([C@@H](C)[C@@H](O)CO)C(=O)N2 [Compound 3, N3-Pro-amanitin] (cyclo(CN[X2][Ile(4R-OH,5-OH)][Trp(2-yl)]GIG); thioether 1-5)",
    "Cat": "criterion not met"
  }
]

Item CC[C@H](C)[C@@H]1NC(=O)CNC(=O)[C@@H]2Cc3c([nH]c4ccccc34)SC[C@H](NC(=O)CNC1=O)C(=O)N[C@@H](CC(N)=O)C(=O)N1C[C@H](N)C[C@H]1C(=O)N[C@@H]([C@@H](C)[C@@H](O)CO)C(=O)N2 [Compound 6, NH2-Pro-amanitin] (cyclo(CN[Pro(4R-NH2)][Ile(4R-OH,5-OH)][Trp(2-yl)]GIG); thioether 1-5) : viability at 96 h, 1 µM beneath 50%, strictly? criterion met

// repeat for CC[C@H](C)[C@@H]1NC(=O)CNC(=O)[C@@H]2Cc3c([nH]c4ccccc34)SC[C@H](NC(=O)CNC1=O)C(=O)N[C@@H](CC(N)=O)C(=O)N1C[C@H](NC(=N)N)C[C@H]1C(=O)N[C@@H]([C@@H](C)[C@@H](O)CO)C(=O)N2 [Compound 7, Gdn-Pro-amanitin] (cyclo(CN[Pro(trans-4-guanidino)][Ile(4R-OH,5-OH)][Trp(2-yl)]GIG); thioether 1-5) and report criterion not met

// repeat for CC[C@H](C)[C@@H]1NC(=O)CNC(=O)[C@@H]2Cc3c([nH]c4ccccc34)SC[C@H](NC(=O)CNC1=O)C(=O)N[C@@H](CC(N)=O)C(=O)N1C[C@H](C#N)C[C@H]1C(=O)N[C@@H]([C@@H](C)[C@@H](O)CO)C(=O)N2 [Compound 4, CN-Pro-amanitin] (cyclo(CN[X1][Ile(4R-OH,5-OH)][Trp(2-yl)]GIG); thioether 1-5) and report criterion met

----------
Experiment: Viability assay against CHO cells (MTT colorimetric assay)
Format: cell-based, Chinese hamster
Conditions: Chinese hamster, CHO cells, 1.56e-007 M; 72 h; replicates n = 1, 2, 3; read-out: % viable cells
Description: (f) Cell culture: Cells were cultured in Minimum Essential Medium Eagle—Alpha Modification (α-MEM) or […] Dulbecco's Modified Eagle Medium (DMEM), purchased from Gibco. […] All cell culture plastic ware was obtained from Coming or Falcon. Cells were cultured at 37° C. in a humidified chamber with 5% CO2. […] To assay cell viability, a nearly confluent tissue culture flask was trypsinized, and the cells were counted following treatment with Trypan blue, using a hemocytometer. […]
Starred links: 1 amine or outer side, 2 acyl side, 3 side chain; linkers in the order of their positions; H or OH if unused. Positions of bridges follow the written chain, without caps; N, C: chain ends. Non-standard residues stand in square brackets, D forms with d. Residues, ends and D or L forms follow the SMILES beside them. Trp(2-yl) = O=C([C@H](Cc1c([*:3])[nH]c2ccccc12)N[*:1])[*:2]; Pro(4R-SH) = O=C([C@@H]1C[C@@H](S[*:3])CN1[*:1])[*:2]; Ile(4R-OH,5-OH) = C[C@H]([C@H](N)C(=O)O)[C@@H](O)CO
Readout label: viability at 72 h, 1.56e-07 M (%)
Write down the numeric answer in % and omit the unit.

Field request: viability at 72 h, 1.56e-07 M | item: CC[C@H](C)[C@@H]1NC(=O)CNC(=O)[C@@H]2Cc3c([nH]c4ccccc34)SC[C@H](NC(=O)CNC1=O)C(=O)N[C@@H](CC(N)=O)C(=O)N1C[C@H](S)C[C@H]1C(=O)N[C@@H]([C@@H](C)[C@@H](O)CO)C(=O)N2 [Compound 5, SH-Pro-amanitin] (cyclo(CN[Pro(4R-SH)][Ile(4R-OH,5-OH)][Trp(2-yl)]GIG); thioether 1-5) 93

----------
test: Viability assay against CHO cells (MTT colorimetric assay); type: cell-based, Chinese hamster; conditions: Chinese hamster, CHO cells, 5e-006 M; 72 h; replicates n = 1, 2, 3; read-out: % viable cells
Starred links: 1 amine or outer side, 2 acyl side, 3 side chain; linkers in the order of their positions; H or OH if unused. Positions of bridges follow the written chain, without caps; N, C: chain ends. Non-standard residues stand in square brackets, D forms with d. Residues, ends and D or L forms follow the SMILES beside them. Trp(2-yl) = O=C([C@H](Cc1c([*:3])[nH]c2ccccc12)N[*:1])[*:2]; Pro(trans-4-guanidino) = N=C(N)N[C@H]1CN[C@H](C(=O)O)C1; Pro(4R-SH) = O=C([C@@H]1C[C@@H](S[*:3])CN1[*:1])[*:2]; Ile(4R-OH,5-OH) = C[C@H]([C@H](N)C(=O)O)[C@@H](O)CO; X5 = COC(=O)N[C@@H]1C[C@@H](C(=O)[*:2])N([*:1])C1; X1 = N#C[C@@H]1C[C@@H](C(=O)[*:2])N([*:1])C1
Readout label: viability at 72 h, 5e-06 M (%)
Write down the numeric answer in % and omit the unit.

[
  {
    "Compound": "CC[C@H](C)[C@@H]1NC(=O)CNC(=O)[C@@H]2Cc3c([nH]c4ccccc34)SC[C@H](NC(=O)CNC1=O)C(=O)N[C@@H](CC(N)=O)C(=O)N1C[C@H](C#N)C[C@H]1C(=O)N[C@@H]([C@@H](C)[C@@H](O)CO)C(=O)N2 [Compound 4, CN-Pro-amanitin] (cyclo(CN[X1][Ile(4R-OH,5-OH)][Trp(2-yl)]GIG); thioether 1-5)",
    "viability at 72 h, 5e-06 M [%]": 103
  },
  {
    "Compound": "CC[C@H](C)[C@@H]1NC(=O)CNC(=O)[C@@H]2Cc3c([nH]c4ccccc34)SC[C@H](NC(=O)CNC1=O)C(=O)N[C@@H](CC(N)=O)C(=O)N1C[C@H](NC(=N)N)C[C@H]1C(=O)N[C@@H]([C@@H](C)[C@@H](O)CO)C(=O)N2 [Compound 7, Gdn-Pro-amanitin] (cyclo(CN[Pro(trans-4-guanidino)][Ile(4R-OH,5-OH)][Trp(2-yl)]GIG); thioether 1-5)",
    "viability at 72 h, 5e-06 M [%]": 93
  },
  {
    "Compound": "CC[C@H](C)[C@@H]1NC(=O)CNC(=O)[C@@H]2Cc3c([nH]c4ccccc34)SC[C@H](NC(=O)CNC1=O)C(=O)N[C@@H](CC(N)=O)C(=O)N1C[C@H](S)C[C@H]1C(=O)N[C@@H]([C@@H](C)[C@@H](O)CO)C(=O)N2 [Compound 5, SH-Pro-amanitin] (cyclo(CN[Pro(4R-SH)][Ile(4R-OH,5-OH)][Trp(2-yl)]GIG); thioether 1-5)",
    "viability at 72 h, 5e-06 M [%]": 100
  }
]

Switching to the query record.
Field request: viability at 72 h, 5e-06 M | item: CC[C@H](C)[C@@H]1NC(=O)CNC(=O)[C@@H]2Cc3c([nH]c4ccccc34)SC[C@H](NC(=O)CNC1=O)C(=O)N[C@@H](CC(N)=O)C(=O)N1C[C@H](NC(=O)OC)C[C@H]1C(=O)N[C@@H]([C@@H](C)[C@@H](O)CO)C(=O)N2 [Compound 32, MeOCONH-Pro-amanitin] (cyclo(CN[X5][Ile(4R-OH,5-OH)][Trp(2-yl)]GIG); thioether 1-5) 92
